The reported numbers originate from the supplement of paper PMC7877785.

test: self-splicing fitness, log relative to wild type (ln ratio); higher = more splicing; Tetrahymena group I intron in knt gene, E. coli kanamycin selection, DiMSum; sequences stand for … in CUCUCU…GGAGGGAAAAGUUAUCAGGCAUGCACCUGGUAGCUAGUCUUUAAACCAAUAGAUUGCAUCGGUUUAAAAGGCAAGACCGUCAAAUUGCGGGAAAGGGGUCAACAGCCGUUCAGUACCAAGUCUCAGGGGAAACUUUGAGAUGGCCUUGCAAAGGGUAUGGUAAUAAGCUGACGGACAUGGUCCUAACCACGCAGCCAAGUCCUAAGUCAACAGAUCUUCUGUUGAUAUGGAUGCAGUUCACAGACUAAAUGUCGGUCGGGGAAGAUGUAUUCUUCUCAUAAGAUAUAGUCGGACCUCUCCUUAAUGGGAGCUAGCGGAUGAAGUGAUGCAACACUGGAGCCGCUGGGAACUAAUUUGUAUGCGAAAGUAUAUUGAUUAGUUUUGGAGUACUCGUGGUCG; conditions: 30 °C;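 further: selection with 25 µg/mL kanamycin versus none on LB agar overnight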
Please mark True if the recorded self-splicing fitness (ln) is equal to or greater than -3, and False if it falls below.

For orientation, consider the following solved cases.
{"sequence.text": "GGCGAGCAAUAUUACGAGUA", "category.label": "True"}
{"sequence.text": "CAAAAGCAAUAUUACGGUGG", "category.label": "True"}

# check: self-splicing fitness (ln) of `CUGCAGCAAUAUUACGGAGC` is greater than or equal to -3
False

# check: self-splicing fitness (ln) of `GGGAAGCAAUAUUACGAAAC` is greater than or equal to -3
True

# check: self-splicing fitness (ln) of `CUAAAGCAAUAUUACGGUUC` is greater than or equal to -3
False

# check: self-splicing fitness (ln) of `GAGAAGCAAUAUUACGCACU` is greater than or equal to -3
True

# check: self-splicing fitness (ln) of `CAGCAGCAAUAUUACGGCUU` is greater than or equal to -3
True

* * *

test: self-splicing fitness, log relative to wild type (ln ratio); higher = more splicing; Tetrahymena group I intron in knt gene, E. coli kanamycin selection, DiMSum; sequences stand for … in CUCUCU…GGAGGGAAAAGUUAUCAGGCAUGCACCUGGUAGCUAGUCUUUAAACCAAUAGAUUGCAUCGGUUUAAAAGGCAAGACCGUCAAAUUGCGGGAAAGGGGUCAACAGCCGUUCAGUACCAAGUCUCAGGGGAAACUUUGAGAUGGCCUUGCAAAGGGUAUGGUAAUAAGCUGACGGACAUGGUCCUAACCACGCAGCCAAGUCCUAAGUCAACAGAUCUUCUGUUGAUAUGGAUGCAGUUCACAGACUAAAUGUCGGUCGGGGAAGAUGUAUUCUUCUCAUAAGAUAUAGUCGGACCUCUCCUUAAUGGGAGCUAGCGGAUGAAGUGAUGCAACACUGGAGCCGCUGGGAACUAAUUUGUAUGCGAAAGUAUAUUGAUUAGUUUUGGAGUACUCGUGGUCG; conditions: 37 °C
Please mark Met if the recorded self-splicing fitness (ln) is equal to or greater than -2, and Not met if it falls below.

{"sequence.text": "CGAUAGCAAUAUUACGCCAC", "category.label": "Met"}

# check: self-splicing fitness (ln) of `GUACAGCAAUAUUACGCAAG` is greater than or equal to -2
Not met

# check: self-splicing fitness (ln) of `AACUAGCAAUAUUACGAAGA` is greater than or equal to -2
Met

# check: self-splicing fitness (ln) of `UCUUAGCAAUAUUACGGGAC` is greater than or equal to -2
Met

# check: self-splicing fitness (ln) of `UACCAGCAAUAUUACGCCAU` is greater than or equal to -2
Not met

# check: self-splicing fitness (ln) of `GACAAGCAAUAUUACGCAGA` is greater than or equal to -2
Met

# check: self-splicing fitness (ln) of `GAUGAGCAAUAUUACGUUUA` is greater than or equal to -2
Not met
